- Test system: Mus musculus
- assay-notes: In vivo antimalarial activity of compound against Plasmodium berghei in mice (Mus musculus) expressed as mean survival time at 20 mg/kg
- Type: functional
Reported values of Survival time for individual entries

{"columns": ["molecule", "recorded-result"],
 "data": [
  ["COc1ncnc(NS(=O)(=O)c2ccc(Nc3c4ccc(Cl)cc4nc4nc(N)nc(N)c34)cc2)c1OC", ">60 days"],
  ["Nc1nc(N)c2c(Nc3ccc(S(=O)(=O)Nc4ccccn4)cc3)c3ccc(Cl)cc3nc2n1", "11 days"],
  ["CN(COOC(C)(C)C)c1c2ccc(Cl)cc2nc2nc(N)nc(N)c12", "28 days"],
  ["Nc1nc(N)c2c(Nc3cc(CN4CCCC4)c(O)c(CN4CCCC4)c3)c3ccc(Cl)cc3nc2n1", ">60 days"],
  ["Nc1nc(N)c2c(Nc3ccc(O)c(CN4CCCC4)c3)c3ccc(Cl)cc3nc2n1", "15 days"],
  ["CCN(CC)c1cc(Nc2c3ccc(Cl)cc3nc3nc(N)nc(N)c23)cc(N(CC)CC)c1O", ">60 days"],
  ["CCN(CC)CCCC(C)Nc1ccnc2cc(Cl)ccc12 (stereo unspecified) [CHLOROQUINE]", "15 days"],
  ["Nc1nc(N)c2c(N)c3ccc(Cl)cc3nc2n1", "15 days"]
]}

Problem: Given the molecule CCN(COOC(C)(C)C)c1c2ccc(Cl)cc2nc2nc(N)nc(N)c12 , what is its reported Survival time?
Result: 13 days

Problem: Given the molecule Nc1nc(N)c2c(Nc3ccc(S(N)(=O)=O)cc3)c3ccc(Cl)cc3nc2n1 , what is its reported Survival time?
Result: 12 days

Problem: Given the molecule CCN(CC)c1cc(Nc2c3ccc(Cl)cc3nc3nc(N)nc(N)c23)ccc1O , what is its reported Survival time?
Result: 12 days
